# TARGET OR TEST SYSTEM: GSK3b (GST-full length GSK3b) (Homo sapiens (Human), UniProt P49841)
# Sequence (P49841 whole entry): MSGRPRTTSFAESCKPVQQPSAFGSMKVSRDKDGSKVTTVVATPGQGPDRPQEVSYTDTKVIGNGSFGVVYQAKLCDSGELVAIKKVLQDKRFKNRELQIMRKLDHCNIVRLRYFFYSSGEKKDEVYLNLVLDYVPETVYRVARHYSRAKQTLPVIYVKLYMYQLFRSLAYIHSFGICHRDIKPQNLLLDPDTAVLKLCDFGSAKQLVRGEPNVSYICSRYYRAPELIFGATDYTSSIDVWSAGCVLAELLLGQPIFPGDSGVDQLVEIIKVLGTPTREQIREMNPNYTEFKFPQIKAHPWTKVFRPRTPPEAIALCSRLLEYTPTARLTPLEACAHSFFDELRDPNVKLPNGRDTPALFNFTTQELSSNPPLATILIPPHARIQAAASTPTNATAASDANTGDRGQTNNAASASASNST
# ASSAY SUMMARY: GSK3b TR-FRET kinase assay
# Format: biochemical
# APPLIED CONDITIONS: GSK3-B (TR-FRET 1 mM ATP); GMean; IC50, 1 mM ATP; geometric mean
pIC50: −log10 of the molar value.
VALUE TYPE: pIC50

# annotated cases, reported pIC50 shown
CC[C@@]1(c2ccccc2)C2=C(CC(C)(C)CC2=O)Nc2n[nH]c(Br)c21: 6.00 to 7.00
Cn1ccc(S(=O)(=O)N2CCC3(CC2)C2=C(CC(C)(C)NC2=O)Nc2n[nH]cc23)n1: < 5.30
CC1(C)CC(=O)C2=C(C1)Nc1n[nH]cc1C21CCN(S(=O)(=O)c2cccc(OC(F)F)c2)CC1: 6.00 to 7.00
CC1(C)CC(=O)C2=C(C1)Nc1n[nH]cc1C21CCN(S(=O)(=O)c2cccc(C#N)c2)CC1: 6.00 to 7.00
CC1(C)CC(=O)C2=C(C1)Nc1n[nH]cc1[C@]21CCN(S(=O)(=O)C2CCCC2)C1: 6.00 to 7.00
CC1(C)CC(=O)C2=C(C1)Nc1n[nH]cc1[C@@]21CCN(S(=O)(=O)c2ccccc2)C1: 5.30 to 6.00

Okay, next one:
Prompt: Which pIC50 value belongs to "COc1ccc(S(=O)(=O)N2CCC3(CC2)C2=C(CC(C)(C)CC2=O)Nc2n[nH]cc23)c(F)c1" ?
Completion: 6.00 to 7.00

---

# TARGET OR TEST SYSTEM: GSK3α (GST-full length GSK3α) (Homo sapiens (Human), UniProt P49840)
# Sequence (P49840 whole entry): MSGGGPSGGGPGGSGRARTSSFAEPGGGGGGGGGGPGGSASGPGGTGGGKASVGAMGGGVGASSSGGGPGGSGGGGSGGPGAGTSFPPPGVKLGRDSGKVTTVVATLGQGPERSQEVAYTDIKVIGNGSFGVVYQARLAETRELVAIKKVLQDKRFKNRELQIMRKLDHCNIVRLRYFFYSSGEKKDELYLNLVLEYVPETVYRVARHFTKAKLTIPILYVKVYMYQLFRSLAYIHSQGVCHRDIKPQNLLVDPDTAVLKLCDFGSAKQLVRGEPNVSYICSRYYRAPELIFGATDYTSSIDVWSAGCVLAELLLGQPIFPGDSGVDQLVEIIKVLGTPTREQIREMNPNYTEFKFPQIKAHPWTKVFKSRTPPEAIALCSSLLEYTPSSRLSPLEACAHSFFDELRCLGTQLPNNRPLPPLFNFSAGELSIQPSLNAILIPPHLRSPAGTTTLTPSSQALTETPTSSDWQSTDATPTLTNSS
# ASSAY SUMMARY: GSK3α TR-FRET kinase assay
# Type: biochemical
# APPLIED CONDITIONS: 1 nM GSK3α, 4 μM ATP, 30 minute preincubation, Table 16; read-out: GSK3-A TR-FRET BIOCHEMICAL (TR-FRET); IC50
Recorded IC50 values for a group of molecules are listed next.

# annotated cases, reported IC50 shown
O=C1CCCC2=C1C1(CCOCC1)c1c[nH]nc1N2 [Compound 884111]: 1000 to 5000 nM
CCC1(c2cccc(N(Cc3ccccc3)C(C)=O)c2)C2=C(CC(C)(C)CC2=O)Nc2n[nH]cc21 (stereo not shown) [Compound 884110]: ≤ 100 nM
CCC1(c2cccc(OC)c2)C2=C(CC(C)(C)NC2=O)Nc2n[nH]c(C(F)(F)F)c21 (stereo not shown) [Compound 949748]: ≤ 100 nM
CC[C@]1(c2cccc(C(F)(F)F)c2)C2=C(CCN(CCOC)C2=O)Nc2n[nH]cc21 [Compound 949600]: > 5000 nM
CC[C@]1(c2cccc(-c3cc(C)ncc3F)c2)C2=C(CC(C)(C)NC2=O)Nc2n[nH]c(C(F)(F)F)c21 [Compound 949644]: 100 to 1000 nM
CC(C)[C@H]1C[C@]2(CCO1)C1=C(CC(C)(C)CC1=O)Nc1n[nH]cc12 [Compound 884014]: 1000 to 5000 nM

Okay, next one:
Prompt: Which IC50 value belongs to CCC1(c2cccc(N(C)c3ccnc(C)c3)c2)C2=C(CC(C)(C)CC2=O)Nc2n[nH]cc21 (stereo not shown) [Compound 932645] ?
Completion: 100 to 1000 nM

---

Recorded IC50 values for a group of compounds are listed next.
# TARGET OR TEST SYSTEM: UniProt P49840
# ASSAY SUMMARY: GSK3α TR-FRET kinase assay
# Format: biochemical
# APPLIED CONDITIONS: 1 nM GSK3α, 4 μM ATP, 30 minute preincubation, Table 16; read-out: GSK3-A TR-FRET BIOCHEMICAL (TR-FRET)

# annotated cases, reported IC50 shown
CCC1(c2cccc(-c3ccnc(C)c3)c2)C2=C(Nc3n[nH]cc31)C(F)C(C)(C)CC2=O (stereo not shown) [Compound 946103]: 100 to 1000 nM
CC1(C)CC(=O)C2=C(C1)Nc1n[nH]cc1C21CCN(S(=O)(=O)c2ccc(C(F)(F)F)cc2)CC1 [Compound 947256]: ≤ 100 nM
CC[C@]1(c2ccccc2)C2=C(Nc3n[nH]cc31)[C@H](F)C(C)(C)CC2=O [Compound 957200]: 100 to 1000 nM

Prompt: Recall the recorded IC50 for CCC1(c2cccc(-c3ccncc3OC)c2)C2=C(CC(C)(C)CC2=O)Nc2n[nH]cc21 (stereo not shown) [Compound 945481] with UniProt P49840 and state it.
Completion: ≤ 100 nM

Prompt: Recall the recorded IC50 for CCC1(c2cccc(S(=O)(=O)C3COC3)c2)C2=C(CC(C)(C)CC2=O)Nc2n[nH]cc21 (stereo not shown) [Compound 944017] with UniProt P49840 and state it.
Completion: ≤ 100 nM

Prompt: Recall the recorded IC50 for CC1(C)CC(=O)C2=C(C1)Nc1n[nH]cc1[C@@]21CCCC(C)(C)C1 [Compound 883846] with UniProt P49840 and state it.
Completion: 100 to 1000 nM

Prompt: Recall the recorded IC50 for CC[C@@H]1C[C@@]2(CO1)C1=C(CC(C)(C)CC1=O)Nc1n[nH]cc12 [Compound 913213] with UniProt P49840 and state it.
Completion: 100 to 1000 nM

---

Recorded IC50 values for a group of compounds are listed next.
# TARGET OR TEST SYSTEM: GSK3b (GST-full length GSK3b) (Homo sapiens (Human))
# ASSAY SUMMARY: GSK3b TR-FRET kinase assay
# Assay type: biochemical
# APPLIED CONDITIONS: 1 nM GSK3b, 2 μM ATP, 30 minute preincubation, Table 16; read-out: GSK3-B TR-FRET BIOCHEMICAL (TR-FRET); IC50

# annotated cases, reported IC50 shown
CC[C@]1(c2cccc(-c3cnn(C(C)C)c3F)c2)C2=C(CC(C)(C)NC2=O)Nc2n[nH]cc21: > 5000 nM
CCC1(c2cccc(-c3cn(C)nc3C)c2)C2=C(CC(C)(C)CC2=O)Nc2n[nH]c(C)c21 (stereo not shown) [Compound 884003]: ≤ 100 nM
CCC1(c2cccc(-c3cnn(Cc4ccc(C(F)(F)F)cc4)c3)c2)C2=C(CC(C)(C)NC2=O)Nc2n[nH]cc21 (stereo not shown): 100 to 1000 nM
CC[C@]1(c2cc(-c3cnn(C)c3)ccc2F)C2=C(CC(C)(C)CC2=O)Nc2n[nH]cc21: > 5000 nM
CC1(C)CC(=O)C2=C(C1)Nc1n[nH]cc1C21CN(c2ccncc2)C1: > 5000 nM

Prompt: Recall the recorded IC50 for CCC1(c2cccc(-c3cnn(C)c3)c2)C2=C(CC(C)(C)C2=O)Nc2n[nH]cc21 (stereo not shown) with GSK3b (GST-full length GSK3b) (Homo sapiens (Human)) and state it.
Completion: > 5000 nM

Prompt: Recall the recorded IC50 for CCC1(c2cccc(-c3ccnc(C(F)(F)F)c3)c2)C2=C(CC(C)(C)CC2=O)Nc2n[nH]cc21 (stereo not shown) [Compound 913348] with GSK3b (GST-full length GSK3b) (Homo sapiens (Human)) and state it.
Completion: 100 to 1000 nM

---

# TARGET OR TEST SYSTEM: UniProtKB P49841
# ASSAY SUMMARY: GSK3b TR-FRET kinase assay
# Assay type: biochemical
# APPLIED CONDITIONS: 1 nM GSK3b, 2 μM ATP, 30 minute preincubation; geometric mean; read-out: GSK3-B TR-FRET BIOCHEMICAL (TR-FRET); GMean; IC50
VALUE TYPE: IC50

CCC1(c2cccc(C(F)(F)F)c2)C2=C(CC(C)CC2=O)Nc2n[nH]cc21 (mixture of isomers) [Compound 801397]: 100 to 1000 nM
CCC1(c2cccc(-c3cnn(CCOC)c3)c2)C2=C(CC(C)(C)NC2=O)Nc2n[nH]cc21 (stereo not shown): > 5000 nM
CC[C@@]1(c2cccc(-c3c(C)cncc3C)c2)C2=C(CC(C)(C)NC2=O)Nc2n[nH]cc21: > 5000 nM
CC[C@]1(c2cccc(-c3c(C)nn(C)c3C)c2)C2=C(CC(C)(C)NC2=O)Nc2n[nH]cc21: ≤ 100 nM
CC[C@]1(c2cccc(S(C)(=O)=O)c2)C2=C(CC(C)(C)CC2=O)Nc2n[nH]cc21: > 5000 nM

Prompt: Which IC50 value belongs to CCC1(c2cccc(-c3cc(OC)nc4ccccc34)c2)C2=C(CC(C)(C)NC2=O)Nc2n[nH]cc21 (stereo not shown) ?
Completion: > 5000 nM

Prompt: Which IC50 value belongs to CCC1(c2cccc(-c3cnn(C)c3)c2)C2=C(CC(C)(C)CC2=O)Nc2n[nH]cc21 (stereo not shown) [Compound 819577] ?
Completion: 100 to 1000 nM
